Entries and their minimal effective concentration
system: Astringency Taste; test: Astringency taste threshold, sensory; format: in vivo, human; details: Homo sapiens; read-out: Astringency Taste Threshold
measuredQuantity: minimal effective concentration (µM)

- CC1(C)O[C@H]2CC(=O)OC[C@]23[C@H]2CC[C@@]4(C)[C@H](c5ccoc5)OC(=O)[C@H]5O[C@]54[C@]2(C)C(=O)C[C@@H]13 [Limonin, reference compound]: 4
- COc1ccc(-c2oc3c(OC)c(OC)cc(OC)c3c(=O)c2OC)cc1OC: 125
- COc1ccc(-c2cc(=O)c3c(OC)c(OC)c(OC)cc3o2)cc1OC: 24
- COc1ccc(-c2cc(=O)c3c(OC)cc(OC)c(OC)c3o2)cc1: 44
- COc1ccc(-c2cc(=O)c3c(OC)c(OC)c(OC)c(OC)c3o2)cc1: 19
- COc1ccc(-c2cc(=O)c3c(OC)c(OC)c(OC)c(OC)c3o2)cc1OC: 51
- COc1cc(-c2cc(=O)c3c(OC)c(OC)c(OC)c(OC)c3o2)ccc1O: 6
- COc1ccc(-c2oc3cc(OC)c(OC)c(OC)c3c(=O)c2OC)cc1OC: 9
- COc1ccc(-c2cc(=O)c3c(OC)cc(OC)c(OC)c3o2)cc1OC: 13
- COc1ccc(-c2cc(=O)c3ccc(OC)c(OC)c3o2)cc1OC: 44
- COc1ccc2c(=O)cc(-c3ccc(OC)c(OC)c3)oc2c1: 15
